target: IL23R_huFC (human) (UniProt Q5VWK5); experiment: IL23-IL23R competitive binding ELISA
Sequence (Q5VWK5 24-353 limits assumed): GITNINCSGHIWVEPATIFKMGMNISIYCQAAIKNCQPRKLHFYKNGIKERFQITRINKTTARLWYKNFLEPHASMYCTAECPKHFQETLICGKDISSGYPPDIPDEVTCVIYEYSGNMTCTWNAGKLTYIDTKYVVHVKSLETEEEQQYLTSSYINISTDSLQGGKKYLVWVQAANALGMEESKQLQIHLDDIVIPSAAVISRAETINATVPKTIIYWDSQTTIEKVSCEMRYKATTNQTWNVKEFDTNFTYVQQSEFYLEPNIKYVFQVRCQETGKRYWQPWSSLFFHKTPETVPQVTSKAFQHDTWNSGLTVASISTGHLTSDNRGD
pIC50: −log10 of the molar value. *1 amine or outer side, *2 acyl side, *3 side chain or, on linkers, in order; H or OH if unused. Bridges are numbered along the chain shown (N, C = ends). Primed or numbered codes have the meaning given here. [ ]: non-standard residue; d: D form. Phe(4-(2-acetylaminoethoxy))″ = 4-(2-acetylaminoethoxy)phenylalanine, CC(=O)NCCOc1ccc(C[C@H](N[*:1])C(=O)[*:2])cc1; 2Nal = N[C@@H](Cc1ccc2ccccc2c1)C(=O)O; AEF = NCCOc1ccc(C[C@H](N)C(=O)O)cc1; αMeOrn = C[C@](N)(CCCN)C(=O)O; Pen = CC(C)(S)[C@H](N)C(=O)O; αMeK = C[C@](N)(CCCCN)C(=O)O
Experimental endpoint: pIC50

Check out these entries, answers already filled in.
[
  {
    "Binder": "XQTWQXFXXENN (Ac; Pen-Pen disulfide; Phe[4-(2-acetylaminoethoxy)]; 2-Nal; Aib; NH2) [Ac-[Pen]-QTWQ-[Pen]-[Phe[4-(2-acetylaminoethoxy)]-[2-Nal]-[Aib]-ENN-NH2]",
    "Experimental endpoint": "pIC50",
    "Measured value": "7.60 to 8.00"
  },
  {
    "Binder": "XNTWQXFXXKNN (Ac; Pen-Pen disulfide; Phe(4-CONH2); 2-Nal; Aib; NH2; DIG linker joins the two subunits) [[Ac-[Pen]-NTWQ-[Pen]-[Phe(4-CONH2)]-[2-Nal]-[Aib]-KNN-NH2]2DIG]",
    "Experimental endpoint": "pIC50",
    "Measured value": "> 8.00"
  },
  {
    "Binder": "XQTWQXYXXENG (Ac; Pen-Pen disulfide; 2-Nal; α-MeOrn; NH2) [Ac-[Pen]-QTWQ-[Pen]-Y-[2-Nal]-[α-MeOrn]-ENG-NH2]",
    "Experimental endpoint": "pIC50",
    "Measured value": "7.00 to 7.60"
  }
]

Q) Give reported pIC50 value for Ac-[Pen][αMeOrn]TWQ[Pen][AEF][2Nal][αMeK]ENG-NH2 (disulfide 1-6 (inferred)) [Ac-[Pen]-[α-MeOrn]-TWQ[Pen]-[Phe[4-(2-aminoethoxy)]-[2-Nal]-[α-MeLys]-ENG-NH2]
A) 6.00 to 7.00

Q) State its pIC50: Ac-[Pen][αMeOrn](Ac)TWQ[Pen][Phe(4-(2-acetylaminoethoxy))″][2Nal][αMeK](Ac)ENG-NH2 (disulfide 1-6 (inferred)) [Ac-[Pen]-[α-MeOrn(Ac)]-TWQ-[Pen]-[Phe[4-(2-acetylaminoethoxy)]-[2-Nal]-[α-MeLys(Ac)]-ENG-NH2]
A) 6.00 to 7.00

Q) Please give measured pIC50 of the following entry: XQTWQXFXXENN (Ac; Pen-Pen disulfide; Phe[4-(2-aminoethoxy)]; 2-Nal; Aib; NH2) [Ac-[Pen]-QTWQ-[Pen]-[Phe[4-(2-aminoethoxy)]-[2-Nal]-[Aib]-ENN-NH2]
A) > 8.00
